- measured-target: Streptavidin (Streptomyces avidinii)
- method-summary: streptavidin binders on small-molecule microarray, primary screen, artefact control for SMM compound annotation, biophysical, 635/667 nm fluorescence (AID 1147);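 note: signal reflects streptavidin binding to arrayed compounds as a control protein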
- run-conditions: streptavidin binding, higher = more signal
Give measured composite z-score for each item. Keep answers brief.
Answers are plain numbers.

> print(dat)
                                   molecule                       measured.target           endpoint  value.reported
1  CCOC(=O)C[C@H]1[C@H](OC(=O)c2cc3ccccc3oc2=O)[C@@H](NC(=O)c2ccc3ccccc3c2)c2cc(OCCCO)ccc2N1C(=O)Cc1ccc(OC)cc1  Streptavidin (Streptomyces avidinii)  composite z-score               1
2  COC(=O)[C@@]1(Cc2ccc(F)cc2)[C@H]2c3cc(C(=O)N(C)C)n(Cc4c(CO)[nH]cc(C)c4=O)c3C[C@H]2CN1C(=O)c1ccccc1  Streptavidin (Streptomyces avidinii)  composite z-score         -0.0278
3  CCCCCCCCCCC(O)C1C=CC2C(=O)N(c3ccccc3)C(=O)C2N1Nc1ccccc1F (centres undefined)  Streptavidin (Streptomyces avidinii)  composite z-score           0.282

# ---- query molecule ----
-- ask Record request: composite z-score value, item COCCCNC(=O)[C@@]1(Sc2ccc(C)cc2)CC(=O)N(Cc2ccccc2Cl)[C@@H]1c1ccc(CO)cc1I
-- reply -0.768

###

- measured-target: Luciferin 4-monooxygenase (Photinus pyralis) (UniProt P08659)
- Sequence (P08659 whole entry, looked up): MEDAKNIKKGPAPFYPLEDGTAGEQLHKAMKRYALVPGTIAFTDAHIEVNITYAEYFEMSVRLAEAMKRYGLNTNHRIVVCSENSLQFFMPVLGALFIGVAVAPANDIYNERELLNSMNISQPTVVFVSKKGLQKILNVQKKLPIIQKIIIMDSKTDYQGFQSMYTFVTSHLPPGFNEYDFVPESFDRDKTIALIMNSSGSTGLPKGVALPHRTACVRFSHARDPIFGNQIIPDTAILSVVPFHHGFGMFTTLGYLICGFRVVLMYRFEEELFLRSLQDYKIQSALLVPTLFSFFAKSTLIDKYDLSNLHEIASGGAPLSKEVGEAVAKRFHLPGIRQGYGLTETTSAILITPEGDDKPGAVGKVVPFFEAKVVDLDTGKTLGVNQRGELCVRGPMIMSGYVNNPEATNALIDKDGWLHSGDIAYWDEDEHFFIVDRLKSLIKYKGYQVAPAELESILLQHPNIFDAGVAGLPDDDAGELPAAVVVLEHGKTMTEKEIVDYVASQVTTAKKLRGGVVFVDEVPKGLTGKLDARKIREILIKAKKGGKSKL
- method-summary: firefly luciferase enzyme inhibitors, primary screen, biochemical, luminescence, purified enzyme, 2006 set (AID 1141);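 note: cell-free assay with purified firefly luciferase at 100 ng per well in PBS; test concentration not given here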
- run-conditions: SteadyGlo luminescence, 30 min, higher = more signal, called active from +8 up or from −8 down
I'd be grateful if you could share measured z-score for these entries.
Give bare numbers.

Below are worked cases with known answers.
compound	measured-target	value-reported
C=C(CCCC)C(=O)CC[C@H](OC(=O)c1ccccc1-c1ccccc1C(=O)O)c1ccccc1OCCO	Luciferin 4-monooxygenase (Photinus pyralis) (UniProt P08659)	-1.82
CC(C)C(CO)N1C(=O)[C@@H]2[C@H]3C(=O)OCC=C[C@H]3OC23C=CCN(C(C)(C)C)C(=O)[C@@H]13 (some centres not stated)	Luciferin 4-monooxygenase (Photinus pyralis) (UniProt P08659)	-0.159
C=CCNC(=O)[C@H]1[C@@H]2C(=O)O[C@@H](c3ccccc3)[C@@H](c3ccccc3)N2[C@@H](c2ccc(O)cc2)[C@]12C(=O)N(C(=O)OCCOC)c1ccc(C#CCC(C(=O)OC)C(=O)OC)cc12	Luciferin 4-monooxygenase (Photinus pyralis) (UniProt P08659)	0.315
CC1(C)C(=O)C(c2ccccc2)=C2CN3C(=O)N(CCc4ccccc4)C(=O)C3(Cc3ccc(C(F)(F)F)cc3)C=C21 (configuration not stated)	Luciferin 4-monooxygenase (Photinus pyralis) (UniProt P08659)	1.24
CCCCCCCCCCC(O)C1C=CC2C(=O)N(C)C(=O)C2N1Nc1cc(OC)c(OC)c(OC)c1 (configuration not stated)	Luciferin 4-monooxygenase (Photinus pyralis) (UniProt P08659)	-0.819

Provide z-score values for the following items, in order.
1. CC(C)C[C@@H]1NC(=O)CNC(=O)[C@@]23C(=O)N[C@@H](Cc4ccccc4)C2[C@H](C)[C@@]2(C)O[C@H]2C3/C=C/C/C=C\CNC1=O (some centres not stated)
2. C=CCC(OC(C)=O)[C@@H]1[C@@H](N(Cc2ccc(-c3ccccc3)cc2)C(=O)Cc2ccc(F)cc2)c2cc(OCCCO)ccc2N1C(=O)Cc1ccc2ccccc2c1 (some centres not stated)
3. COc1cc(NN2C(C(O)C3CCCCC3)C=CC3C(=O)N(C)C(=O)C32)cc(OC)c1OC (configuration not stated)

-- reply
1: -0.14; 2: -1.2; 3: -0.527

// batch mode: one z-score value per listed entry
1. CN(C)CCCCNC(=O)[C@H]1C[C@H]2C(=O)N[C@@H](CCCC[N+](C)(C)C)C(=O)N2[C@H]1c1ccc(O)cc1
2. O=C1O[C@H](c2ccccc2)[C@H](c2ccccc2)N2[C@H]1[C@@H](C(=O)N1CCCCCCC1)[C@]1(C(=O)Nc3ccc(C#CC4(O)CCCCCC4)cc31)[C@H]2c1ccccc1OCCO
3. COCCOC(=O)N1C(=O)[C@@]2(c3cc(C#CCCO)ccc31)[C@H](c1ccccc1OCCO)N1[C@H](c3ccccc3)[C@H](c3ccccc3)OC(=O)[C@H]1[C@@H]2C(=O)N1CCCCCCC1
4. C=CCC(OC(C)=O)[C@@H]1[C@@H](N(Cc2cccc3ccccc23)C(=O)c2cccc3ccccc23)c2cc(OCCCO)ccc2N1C(=O)c1ccc2ccccc2c1 (some centres not stated)
5. CO[C@H]1O[C@H](CO)[C@@H](OC(=O)CCc2ccccc2)[C@H](OC(=O)c2cc3ccccc3[nH]2)[C@H]1OC(=O)c1cc2ccccc2[nH]1

-- reply
0.0252
1.03
-0.0558
1.48
-0.105

Look at each compound and report its z-score.
1. COc1ccc([Si](C)(C)[C@@H]2[C@@H](CC(=O)N3Cc4ccccc4C[C@H]3CO)O[C@]3(C(=O)N(Cc4ccc(N5CCC5=O)cc4)c4ccccc43)[C@H]2C)cc1
2. Cc1ccc(S[C@]2(C(=O)NCc3ccccc3)CC(=O)N(Cc3cc(C(F)(F)F)cc(C(F)(F)F)c3)[C@@H]2c2ccc(CO)cc2I)cc1
3. CCOC(=O)C1=C[C@@H](C(C)(C)C)N(S(=O)(=O)c2ccc(C)cc2)[C@H]1c1cccc(Cl)c1

-- reply
[0.205, -0.461, 1.24]

Give measured z-score for every item shown.
1. CC(CO)N1C(=O)[C@@H]2[C@H]3C(=O)OCC=C[C@H]3OC23C=CCN(c2ccc(Cl)cc2)C(=O)[C@@H]13 (some centres not stated)
2. C[C@]1(C(=O)NCC(F)(F)F)c2ccccc2C(=O)N(Cc2ccccc2)[C@H]1c1ccc(CO)cc1
3. [N-]=[N+]=Nc1ccccc1C[C@@]1(C(=O)O)N=C(c2ccc(OCCCO)cc2)O[C@@H]1c1ccccc1N=[N+]=[N-]
4. C=C(C(=O)CC[C@@H](OC(=O)c1ccccc1-c1ccccc1C(=O)O)c1ccccc1OCCO)C(C)C

-- reply
[-0.619, 0.857, -5.43, -0.679]

###

- method-summary: MM1S cell viability effects, profiling panel, calcein-AM fluorescence, 48 h, basal (AID 1165);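 note: viability of MM1S multiple myeloma cells under basal unstimulated conditions; test concentration not given here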
- run-conditions: higher = more signal
So I've got a bunch of compounds here, and I need their z-score values.
Give bare numbers.

Example entries and their recorded answers appear below.
compound	value-reported
CC(C)=CCCC(C)=CC(O)C1C=CC2C(=O)N(c3ccccc3)C(=O)C2N1Nc1ccccc1F (configuration not stated)	0.381
CN(C)C(=O)[C@]1(CCS(=O)(=O)c2ccccc2)N=C(c2ccc(OCCCO)cc2)O[C@@H]1c1ccccc1	-0.675
COCCOC(=O)N1C(=O)[C@@]2(c3cc(C#CCCO)ccc31)[C@H](C(=O)N1CCCCCCC1)[C@H]1C(=O)O[C@H](c3ccccc3)[C@H](c3ccccc3)N1[C@@H]2c1ccccc1OCCO	-2.12
COC(=O)[C@@]1(Cc2ccc(OC)cc2)[C@H]2c3cc(C(=O)N4CCCC4)n(Cc4ccc(OC(F)(F)F)cc4)c3C[C@H]2CN1C(=O)c1ccccc1	-0.889
O=C1NC(=O)C2C1C=CC(C(O)c1ccccn1)N2Nc1ccc(Cl)cc1Cl (configuration not stated)	-0.588
CCCCC(=C=CC[C@H](O)c1ccc(OCCO)cc1)C[C@H](O)COCc1ccccc1	-3.3

Dear reader, for each entry below, please note its z-score.
1. CN1C(=O)[C@@H]2[C@@H](CC(COc3ccccc3)=C([C@H](O)CCc3ccccc3)[C@@H]2CO)C1=O
2. C=C[C@@H](C)[C@@H](OC(=O)Nc1ccc(SC)cc1)c1ccc(OCCO)cc1
3. [N-]=[N+]=NCc1ccccc1[C@@H]1OC(c2ccc(OCCCO)cc2)=N[C@]1(Cc1ccccc1)C(=O)NCCN1CCOCC1
4. O=C1O[C@H](c2ccccc2)[C@H](c2ccccc2)N2[C@H]1[C@@H](C(=O)Nc1nc3ccccc3s1)[C@]1(C(=O)Nc3ccc(C#CC4=CCCCC4)cc31)[C@H]2c1ccc(O)cc1

-- reply
1. 0.445
2. -1.08
3. -0.887
4. -1.01

Go through the list and state z-score for each entry.
1. CC(C)C(=C=CC[C@@H](O)c1cccc(OCCO)c1)C[C@@H](O)c1ccccn1
2. C=C(CCCC)C(=O)CC[C@@H](OC(=O)c1cccnc1)c1ccc(OCCO)cc1
3. CC1(C)C(=O)C(c2ccccc2)=C2CN3C(=O)N(CCc4ccccc4)C(=O)C3(Cc3ccc(F)cc3)C=C21 (configuration not stated)
4. CC(=O)n1cc(C(O)C2C=CC3C(=O)N(c4ccccc4)C(=O)C3N2Nc2ccc(C(C)C)cc2)c2ccccc21 (configuration not stated)
5. CCOC(=O)C[C@H]1[C@H](OC(=O)c2ccccc2-c2ccccc2)[C@@H](NC(=O)c2ccccc2)c2cc(OCCCO)ccc2N1C(=O)c1ccccc1
6. COc1cc(NN2C(C(O)C3CCCCC3)C=CC3C(=O)N(c4ccccc4)C(=O)C32)cc(OC)c1OC (configuration not stated)

-- reply
[-0.0369, -3.34, -1.24, -0.829, -0.162, -0.434]

-- ask Need z-score, item CN1C(=O)C2C=CC(C(O)c3ccc(I)cc3)N(Nc3ccccc3)C2C1=O (configuration not stated)
-- reply -0.521

Values from PubChem BioAssay
